# Target desc: T1, human CD3e/g (human, UniProt P07766 23-126; P09693 23-116)
# T1 construct: Bought soluble protein; also called hCD3e/g; human CD3e/g (Acro CDD-C52W4)
# T1 sequence (P07766 23-126, chain 1 of 2): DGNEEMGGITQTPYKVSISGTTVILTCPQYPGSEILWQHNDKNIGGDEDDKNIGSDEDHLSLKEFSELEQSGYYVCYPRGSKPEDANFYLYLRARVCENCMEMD
# T1 sequence (P09693 23-116, chain 2 of 2): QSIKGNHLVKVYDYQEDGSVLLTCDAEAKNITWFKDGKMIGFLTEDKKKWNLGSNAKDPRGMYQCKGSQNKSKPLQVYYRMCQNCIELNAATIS
# Method summary: SPR (Carterra LSA), mAb on chip
Measured property: pKd
In plain terms, pKd is the concentration in mol/L turned into minus its base-10 logarithm.

Binder | Measured property | Test value
mAb 115 (antibody, V domains shown, VH and VL only) VH: EVQLVESGGGLVKTGGSHRLSCVASGFSFKKAWMNWVRQAPGKGLEWVGRIKRNSDGGTTDYAAPVKGRFILSRDDSKNTLYLQMNSLKTEDTAVYYCTTLDSSSWYVGYYYMDVWGKGTTVTVSS VL: DIQMTQSPSSVSASVGDRVTITCRASQDINNWLAWYQQKPGKAPKILIYTASNLQSGVPSRFSGSGSGTDFTLTISSLQPEDFATYFCQQAHGLPITFGQGTRLEIK | pKd | 7.80
mAb 303 (antibody, V domains shown, VH and VL only) VH: EVHLLESGGGLVQPGGSLRLSCAASGFTFSSYAMNWVRQAPGKGLEWISIISGGRRSGITYYAASVKGRFTISRDNSKNTLDLQMNSLRAEDTAVYYCAKMYNYYYYYIDVWGKGTTVTVSS VL: SYELTQPLSVSVALGQTARITCGGNNIGSKDVHWYQQKPGQAPVLVIYRDSNRPSGIPERFSGSNSGNTATLTISRAQAGDEADYYCQVWDSNTAVFGGGTQLTAL | pKd | 8.26

Attention now shifts to the item below.
// field: pKd; key: mAb 125 (antibody, V domains shown, VH and VL only) VH: EVQLVESGGGLVKTGGSLRLSCVASGFSFKKAWMNWVRQAPGKGLEWVGRIKRNTDGGTADYAAPVKGRFTLSRDDSKKTLYLQMNSLKTEDTAVYYCTTLDSSSRYVGYYYMDVWGKGTTVTVSS VL: DIQMTQSPSSVSASVGDRVIITCRASQDINNWLAWYQQKPGKVPKLLIYTASSLQSGVPSRFSGSGSGTDFTLTIGTLQPEDFATYYCQQAHSLPITFGQGTRLDIK ; value = 7.86
